- system-under-test: CA II (Homo sapiens)
- method-description: biochemical
pKd: −log10 of the molar value.
property-measured: pKd

>>> numeric_value("NS(=O)(=O)c1c(F)c(F)c(S(=O)(=O)CCO)c(NCc2ccccc2)c1F [Compound 10a]")
6.86

---

- system-under-test: CA VII (Homo sapiens)
- Sequence (P43166 whole entry): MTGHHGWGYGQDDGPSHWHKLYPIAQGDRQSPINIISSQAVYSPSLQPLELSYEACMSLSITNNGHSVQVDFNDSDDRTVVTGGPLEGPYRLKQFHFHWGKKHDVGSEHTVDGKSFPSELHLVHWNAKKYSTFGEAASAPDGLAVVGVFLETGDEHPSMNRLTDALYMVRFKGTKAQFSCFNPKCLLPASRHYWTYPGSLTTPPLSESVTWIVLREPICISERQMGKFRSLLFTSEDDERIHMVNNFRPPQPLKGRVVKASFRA
- method-description: Isothermal titration calorimetry (ITC), CA VII
- Type: binding
- run-parameters: 37° C., pH 7.0, read-out: Dissociation constants Kd to CA VII
property-measured: Kd

>>> result("NS(=O)(=O)c1c(F)c(F)c(S(=O)(=O)CCO)c(NCc2ccccc2)c1F [Compound 10a]")
"405 nM"

---

- system-under-test: CA II (Homo sapiens)
- method-description: Fluorescent thermal shift assay (TSA), CA II
- Format: binding
- run-parameters: 37° C., pH 7.0, read-out: Dissociation constants Kd to CA II (converted)
property-measured: Kd (nM)

>>> numeric_value("NS(=O)(=O)c1c(F)c(F)c(SCCc2ccccc2)c(F)c1NC1Cc2ccccc2C1")
3300
>>> numeric_value("NS(=O)(=O)c1c(F)c(F)c(SCCc2ccccc2)c(F)c1NC1CCCCC1")
250
>>> numeric_value("NS(=O)(=O)c1c(F)c(F)c(S(=O)(=O)CCc2ccccc2)c(N[C@@H](c2ccccc2)[C@H](O)c2ccccc2)c1F")
33
>>> numeric_value("NS(=O)(=O)c1c(F)c(F)c(S(=O)(=O)CCc2ccccc2)c(N[C@H](c2ccccc2)[C@@H](O)c2ccccc2)c1F")
91
>>> numeric_value("NS(=O)(=O)c1c(F)c(F)cc(F)c1NC1CCCCCCC1")
200
>>> numeric_value("CC(C)Nc1c(F)c(SCCc2ccccc2)c(F)c(F)c1S(N)(=O)=O")
500
>>> numeric_value("COc1ccc(CNc2c(F)c(S(N)(=O)=O)c(F)c(F)c2S(=O)(=O)CCc2ccccc2)cc1OC")
22.2
>>> numeric_value("COc1cccc(OC)c1CNc1c(F)c(S(N)(=O)=O)c(F)c(F)c1S(=O)(=O)CCO [Compound 10d]")
16.7
>>> numeric_value("NS(=O)(=O)c1c(F)c(F)c(S(=O)(=O)CCc2ccccc2)c(NC23CC4CC(CC(C4)C2)C3)c1F")
50
>>> numeric_value("COc1cccc(OC)c1CNc1c(F)c(S(N)(=O)=O)c(F)c(F)c1S(=O)(=O)CCc1ccccc1")
22.2
>>> numeric_value("COc1ccc(CNc2c(F)c(S(N)(=O)=O)c(F)c(F)c2S(=O)(=O)CCO)cc1OC [Compound 10e]")
25
>>> numeric_value("CC(Nc1c(F)c(SCCc2ccccc2)c(F)c(F)c1S(N)(=O)=O)c1ccccc1 (centres unmarked)")
3300
>>> numeric_value("NS(=O)(=O)c1c(F)c(F)c(SCCO)c(F)c1N[C@H]1CCc2ccccc21")
2780
>>> numeric_value("NS(=O)(=O)c1c(F)c(F)c(S(=O)(=O)CCc2ccccc2)c(NCCc2ccccc2)c1F")
17

---

- system-under-test: CA XIII (Homo sapiens)
- method-description: biochemical
property-measured: Kd

>>> result("NS(=O)(=O)c1c(F)c(F)c(S(=O)(=O)CCO)c(NCc2ccccc2)c1F [Compound 10a]")
"45.2 nM"

---

- system-under-test: CA XIII (Homo sapiens, UniProt Q8N1Q1)
- Sequence (Q8N1Q1 whole entry): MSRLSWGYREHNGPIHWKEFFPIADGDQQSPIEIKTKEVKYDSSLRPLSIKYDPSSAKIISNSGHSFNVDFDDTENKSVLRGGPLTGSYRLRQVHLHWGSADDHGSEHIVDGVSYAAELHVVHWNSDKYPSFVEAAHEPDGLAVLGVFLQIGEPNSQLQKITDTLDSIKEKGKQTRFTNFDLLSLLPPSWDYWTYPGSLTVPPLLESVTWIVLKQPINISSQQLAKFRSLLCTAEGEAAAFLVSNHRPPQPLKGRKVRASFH
- method-description: Fluorescent thermal shift assay (TSA), CA XIII
- Type: binding
- run-parameters: 37° C., pH 7.0, read-out: Dissociation constants Kd to CA XIII
property-measured: log10 of Kd (log10 of the value in nM)

>>> numeric_value("NS(=O)(=O)c1c(F)c(F)c(S(=O)(=O)CCc2ccccc2)c(NC23CC4CC(CC(C4)C2)C3)c1F")
0.75
>>> numeric_value("NS(=O)(=O)c1c(F)c(F)c(SCCc2ccccc2)c(F)c1NC1Cc2ccccc2C1")
2.00
>>> numeric_value("NS(=O)(=O)c1c(F)c(F)c(S(=O)(=O)CCc2ccccc2)c(NCc2ccccc2)c1F")
0.40
>>> numeric_value("NS(=O)(=O)c1c(F)c(F)c(S(=O)(=O)CCO)c(NCc2ccccc2)c1F [Compound 10a]")
1.15
>>> numeric_value("NS(=O)(=O)c1c(F)c(F)c(S(=O)(=O)CCc2ccccc2)c(N[C@@H](c2ccccc2)[C@H](O)c2ccccc2)c1F")
0.75
>>> numeric_value("NS(=O)(=O)c1c(F)c(F)cc(F)c1NC1CCCCCCC1")
2.00
>>> numeric_value("NS(=O)(=O)c1c(F)c(F)c(SCCO)c(F)c1N[C@H]1CCc2ccccc21")
1.52
>>> numeric_value("CC(C)Nc1c(F)c(SCCc2ccccc2)c(F)c(F)c1S(N)(=O)=O")
1.83
>>> numeric_value("COc1ccc(CNc2c(F)c(S(N)(=O)=O)c(F)c(F)c2S(=O)(=O)CCO)cc1OC [Compound 10e]")
0.63
>>> numeric_value("NS(=O)(=O)c1c(F)c(F)c(S(=O)(=O)CCc2ccccc2)c(N[C@H](c2ccccc2)[C@@H](O)c2ccccc2)c1F")
0.83
>>> numeric_value("CNc1c(F)c(S(N)(=O)=O)c(F)c(F)c1S(=O)(=O)CCc1ccccc1")
0.11
>>> numeric_value("COc1cccc(OC)c1CNc1c(F)c(S(N)(=O)=O)c(F)c(F)c1S(=O)(=O)CCc1ccccc1")
0.92
>>> numeric_value("COc1cccc(OC)c1CNc1c(F)c(S(N)(=O)=O)c(F)c(F)c1S(=O)(=O)CCO [Compound 10d]")
1.40
>>> numeric_value("NS(=O)(=O)c1c(F)c(F)c(S(=O)(=O)CCc2ccccc2)c(NCCc2ccccc2)c1F")
0.83
>>> numeric_value("CC(Nc1c(F)c(SCCc2ccccc2)c(F)c(F)c1S(N)(=O)=O)c1ccccc1 (centres unmarked)")
1.60
>>> numeric_value("COc1ccc(CNc2c(F)c(S(N)(=O)=O)c(F)c(F)c2S(=O)(=O)CCc2ccccc2)cc1OC")
0.52
>>> numeric_value("NS(=O)(=O)c1c(F)c(F)c(SCCc2ccccc2)c(F)c1NC1CCCCC1")
2.70
